# assay comment: Stability in urine under different storage conditions
# Type: physicochemical, human
# details: Freeze–thaw stability 5 cycles, 2.50 ng/mL (LQC)
Exercise: state measured Measured concentration for each of the compounds provided.
Field format: number, assumed ng/mL, no unit text.

Query: Need Measured concentration, item C=C1CC[C@@H]2[C@](C)(CO)[C@H](O)CC[C@@]2(C)[C@@H]1/C=C/C1=CCOC1=O [AP3, 14-deoxy-11, 12-didehydroandrographolide]
Response: 2.35

Query: Then what about the compound C=C1CC[C@@H]2[C@](C)(CO)[C@H](O)CC[C@@]2(C)[C@@H]1C/C=C1/C(=O)OC[C@H]1O [AP1, andrographolide] ?
Response: 2.36

Query: Then what about the compound C=C1CC[C@@H]2[C@](C)(CO)[C@H](O)CC[C@@]2(C)[C@@H]1CCC1=CCOC1=O [AP6, 14-deoxyandrographolide] ?
Response: 2.39

Query: Then what about the compound C=C1CC[C@@H]2[C@](C)(CO[C@@H]3O[C@H](CO)[C@@H](O)[C@H](O)[C@H]3O)CCC[C@@]2(C)[C@@H]1CCC1=CCOC1=O [AP4, neoandrographolide] ?
Response: 2.35

---

# assay comment: Stability in urine under different storage conditions
# Format: physicochemical, human
# details: Short term stability 8 h at room temperature, 2.50 ng/mL (LQC)
Exercise: state measured %Accuracy for each of the compounds provided.
Field format: number, assumed %, no unit text.

Query: Need %Accuracy, item C=C1CC[C@@H]2[C@](C)(CO)[C@H](O)CC[C@@]2(C)[C@@H]1/C=C/C1=CCOC1=O [AP3, 14-deoxy-11, 12-didehydroandrographolide]
Response: 94.35

Query: Then what about the compound C=C1CC[C@@H]2[C@](C)(CO)[C@H](O)CC[C@@]2(C)[C@@H]1CCC1=CCOC1=O [AP6, 14-deoxyandrographolide] ?
Response: 95.56

Query: Then what about the compound C=C1CC[C@@H]2[C@](C)(CO[C@@H]3O[C@H](CO)[C@@H](O)[C@H](O)[C@H]3O)CCC[C@@]2(C)[C@@H]1CCC1=CCOC1=O [AP4, neoandrographolide] ?
Response: 97.15

Query: Then what about the compound C=C1CC[C@@H]2[C@](C)(CO)[C@H](O)CC[C@@]2(C)[C@@H]1C/C=C1/C(=O)OC[C@H]1O [AP1, andrographolide] ?
Response: 93.15

---

Exercise: state measured %Accuracy for each of the molecules provided.
# assay comment: Stability in urine under different storage conditions
# Type: physicochemical, human
# details: Post preparative stability 24 h at autosampler, 500.00 ng/mL (MQC)
Field format: number, assumed %, no unit text.

Query: Need %Accuracy, item C=C1CC[C@@H]2[C@](C)(CO[C@@H]3O[C@H](CO)[C@@H](O)[C@H](O)[C@H]3O)CCC[C@@]2(C)[C@@H]1CCC1=CCOC1=O [AP4, neoandrographolide]
Response: 89.94

Query: Then what about the molecule C=C1CC[C@@H]2[C@](C)(CO)[C@H](O)CC[C@@]2(C)[C@@H]1C/C=C1/C(=O)OC[C@H]1O [AP1, andrographolide] ?
Response: 95.00

Query: Then what about the molecule C=C1CC[C@@H]2[C@](C)(CO)[C@H](O)CC[C@@]2(C)[C@@H]1/C=C/C1=CCOC1=O [AP3, 14-deoxy-11, 12-didehydroandrographolide] ?
Response: 90.33

Query: Then what about the molecule C=C1CC[C@@H]2[C@](C)(CO)[C@H](O)CC[C@@]2(C)[C@@H]1CCC1=CCOC1=O [AP6, 14-deoxyandrographolide] ?
Response: 93.94
